Sourced from patent US20230192789A1

TARGET UNDER TEST: T1, recombinant HDM2 (amino acids 17-125 of SEQ ID NO:103) (human, UniProt Q00987 17-125)
T1 construct: also called MDM2; not shown: thrombin cleavage site (pET28a vector)
T1 sequence (Q00987 other isoform, or with tags, fused parts or gaps): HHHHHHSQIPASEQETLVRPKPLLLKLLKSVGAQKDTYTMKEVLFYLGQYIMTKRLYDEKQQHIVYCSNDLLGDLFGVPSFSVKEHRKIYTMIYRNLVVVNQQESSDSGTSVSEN
EXPERIMENT DESCRIPTION: streptavidin pull-down of biotinylated peptide with recombinant HDM2 and HDMX (1:1 mixture per paragraph 301), western blot
Bridges are numbered along the chain shown (N, C = ends). [ ]: non-standard residue; d: D form. The star is where a group is joined. Biotin = O=C1N[C@H]2[C@H](CS[C@H]2CCCCC(=O)*)N1; R8 = C=CCCCCCC[C@@](C)(N)C(=O)O; S5 = C=CCCC[C@](C)(N)C(=O)O
ENDPOINT: binding result

binding result for Biotin-LTF[R8]EYWAQK[S5]SAA-NH2 (staple 4-11; SMILES CC(C)C[C@H](NC(=O)CCCC[C@@H]1SC[C@@H]2NC(=O)N[C@@H]21)C(=O)N[C@H](C(=O)N[C@@H](Cc1ccccc1)C(=O)N[C@]1(C)CCCCCCC=CCCC[C@@](C)(C(=O)N[C@@H](CO)C(=O)N[C@@H](C)C(=O)N[C@@H](C)C(N)=O)NC(=O)[C@H](CCCCN)NC(=O)[C@H](CCC(N)=O)NC(=O)[C@H](C)NC(=O)[C@H](Cc2c[nH]c3ccccc23)NC(=O)[C@H](Cc2ccc(O)cc2)NC(=O)[C@H](CCC(=O)O)NC1=O)[C@@H](C)O) [ATSP-7041 B26K] is no binding

Value of binding result reported for the binder Biotin-LTF[R8]EYWAQG[S5]SAA-NH2 (staple 4-11; SMILES CC(C)C[C@H](NC(=O)CCCC[C@@H]1SC[C@@H]2NC(=O)N[C@@H]21)C(=O)N[C@H](C(=O)N[C@@H](Cc1ccccc1)C(=O)N[C@]1(C)CCCCCCC=CCCC[C@@](C)(C(=O)N[C@@H](CO)C(=O)N[C@@H](C)C(=O)N[C@@H](C)C(N)=O)NC(=O)CNC(=O)[C@H](CCC(N)=O)NC(=O)[C@H](C)NC(=O)[C@H](Cc2c[nH]c3ccccc23)NC(=O)[C@H](Cc2ccc(O)cc2)NC(=O)[C@H](CCC(=O)O)NC1=O)[C@@H](C)O) [ATSP-7041 B26G] is no binding
